Parameter pIC50: see the listing below.
biological target: human NaV 1.7 (Homo sapiens, UniProt Q15858); test: E-VIPR optical membrane potential assay with electrical stimulation; conditions: sodium channel inhibition; read-out: Binned Activity Data (IC50)
Sequence (Q15858 whole entry): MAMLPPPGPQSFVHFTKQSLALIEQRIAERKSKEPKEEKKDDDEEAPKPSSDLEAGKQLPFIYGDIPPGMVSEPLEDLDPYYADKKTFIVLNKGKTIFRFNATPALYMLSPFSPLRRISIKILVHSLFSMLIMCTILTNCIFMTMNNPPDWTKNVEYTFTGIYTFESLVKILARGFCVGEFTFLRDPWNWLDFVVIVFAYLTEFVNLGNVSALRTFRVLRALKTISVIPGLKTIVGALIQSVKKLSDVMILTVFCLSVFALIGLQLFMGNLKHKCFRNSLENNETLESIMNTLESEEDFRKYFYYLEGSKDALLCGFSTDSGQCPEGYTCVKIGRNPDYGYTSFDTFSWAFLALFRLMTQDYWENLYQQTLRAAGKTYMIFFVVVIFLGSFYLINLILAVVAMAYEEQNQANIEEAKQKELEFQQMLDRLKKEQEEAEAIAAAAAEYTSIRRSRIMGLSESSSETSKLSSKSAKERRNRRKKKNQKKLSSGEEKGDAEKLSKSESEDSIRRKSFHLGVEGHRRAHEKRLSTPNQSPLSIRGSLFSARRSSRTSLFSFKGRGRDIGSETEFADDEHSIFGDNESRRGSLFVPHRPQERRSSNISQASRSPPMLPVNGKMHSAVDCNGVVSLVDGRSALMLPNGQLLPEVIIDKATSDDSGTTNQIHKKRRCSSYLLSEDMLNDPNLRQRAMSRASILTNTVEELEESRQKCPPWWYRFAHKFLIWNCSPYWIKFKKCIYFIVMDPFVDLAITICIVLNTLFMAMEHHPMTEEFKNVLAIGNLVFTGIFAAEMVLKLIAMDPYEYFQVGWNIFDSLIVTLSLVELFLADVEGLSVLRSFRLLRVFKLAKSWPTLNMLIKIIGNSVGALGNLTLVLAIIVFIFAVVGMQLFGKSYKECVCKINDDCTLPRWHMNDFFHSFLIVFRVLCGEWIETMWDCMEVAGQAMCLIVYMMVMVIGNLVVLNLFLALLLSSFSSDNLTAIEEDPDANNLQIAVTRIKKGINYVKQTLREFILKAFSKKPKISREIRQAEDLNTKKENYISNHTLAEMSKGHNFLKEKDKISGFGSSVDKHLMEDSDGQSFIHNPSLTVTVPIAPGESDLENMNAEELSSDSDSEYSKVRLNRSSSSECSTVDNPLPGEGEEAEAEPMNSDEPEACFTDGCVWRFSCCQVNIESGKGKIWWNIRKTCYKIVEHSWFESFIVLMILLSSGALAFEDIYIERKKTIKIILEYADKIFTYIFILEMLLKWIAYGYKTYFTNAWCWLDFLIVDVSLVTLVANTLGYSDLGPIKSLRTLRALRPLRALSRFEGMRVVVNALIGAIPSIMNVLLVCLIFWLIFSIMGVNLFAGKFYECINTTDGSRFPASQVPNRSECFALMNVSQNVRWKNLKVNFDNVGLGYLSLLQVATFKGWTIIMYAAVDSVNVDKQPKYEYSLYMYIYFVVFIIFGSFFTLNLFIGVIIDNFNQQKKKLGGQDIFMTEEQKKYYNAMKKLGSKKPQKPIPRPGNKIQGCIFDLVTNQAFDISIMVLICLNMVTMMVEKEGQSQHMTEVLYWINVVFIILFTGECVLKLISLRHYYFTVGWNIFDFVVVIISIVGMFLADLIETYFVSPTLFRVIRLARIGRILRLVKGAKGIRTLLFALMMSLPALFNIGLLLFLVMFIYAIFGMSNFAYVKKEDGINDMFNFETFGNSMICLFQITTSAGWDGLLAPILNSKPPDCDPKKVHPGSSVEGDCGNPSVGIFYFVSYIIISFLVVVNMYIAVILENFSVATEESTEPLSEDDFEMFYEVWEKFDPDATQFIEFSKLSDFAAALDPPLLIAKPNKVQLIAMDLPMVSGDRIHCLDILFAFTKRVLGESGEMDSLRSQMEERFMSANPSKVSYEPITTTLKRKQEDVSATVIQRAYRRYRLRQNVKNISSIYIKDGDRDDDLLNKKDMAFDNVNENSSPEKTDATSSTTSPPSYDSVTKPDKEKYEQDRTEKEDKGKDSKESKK
pIC50: −log10 of the molar value.

See these solved cases before continuing.
> print(dat)
                                        smi                     target.or.test.system  quantity.name  recorded.value
1  CC(C)Oc1ccc(C(=O)N2CCC3(CC2)Oc2ccccc2-c2nn(C)cc23)cn1  human NaV 1.7 (Homo sapiens, UniProt Q15858)          pIC50          ≥ 5.70
2  CC(C)Oc1ccc(C(=O)N2CCC3(CC2)Oc2ccccc2-c2c3cnn2C)cc1F  human NaV 1.7 (Homo sapiens, UniProt Q15858)          pIC50          ≥ 5.70
3  CCOc1ccccc1C(=O)N1CCC2(CC1)Oc1ccccc1-c1c2cnn1C  human NaV 1.7 (Homo sapiens, UniProt Q15858)          pIC50          ≥ 5.70

Request: Write down pIC50 measured for item CN(C)S(=O)(=O)c1ccc(C(=O)N2CCC3(CC2)Oc2ccccc2-c2c3cnn2C)cc1
Result: 5.30 to 5.70

Request: Write down pIC50 measured for item Cn1ncc2c1-c1ccccc1OC21CCN(C(=O)c2cccc3cnn(C)c23)CC1
Result: < 5.30

Request: Write down pIC50 measured for item COc1cc(C(=O)N2CCC3(CC2)Oc2cc(Cl)ccc2-n2cccc23)ccc1C1CC1
Result: ≥ 5.70
